protocolDescription: Hemolytic activity in sheep RBC incubated for 1 hr by absorbance based analysis
Format: toxicity, cell-based, Ovis aries, Erythrocyte
conditionParameters: sheep red blood cells
Mark Criterion met for HC50 at 1 h under 800 µg/mL, Criterion not met if at or over.

| structure | qualitativeLabel |
| --- | --- |
| C=CCc1cccc(Oc2ccc(C(=O)CC)cc2)c1OCCCC[N+](C)(C)CC(=O)N1CCOCC1.[Br-] | Criterion met |
| C=CCc1cccc(Oc2ccc(C(=O)CC)cc2)c1O | Criterion met |
| C=CCc1cccc(Oc2ccc(C(=O)CC)cc2)c1OCCC[N+](C)(C)CC(=O)NCCCCCC.[Br-] | Criterion not met |
| C=CCc1cccc(Oc2ccc(C(=O)CC)cc2)c1OCC[N+](C)(C)CC(=O)NCCCCCC.[Br-] | Criterion not met |
| C=CCc1cccc(Oc2ccc(C(=O)CC)cc2)c1OCC[N+](C)(C)CC(=O)N(CC)CC.[Br-] | Criterion met |
| CCCCCCNC(=O)C[N+](C)(C)CCCOc1ccccc1Oc1ccc(C(=O)CC)cc1.[Br-] | Criterion met |

----------
HC50 at 1 h overview
protocolDescription: Hemolytic activity in sheep RBC incubated for 1 hr by absorbance based analysis
Format: toxicity, cell-based, Ovis aries, Erythrocyte
conditionParameters: sheep red blood cells

| structure | resultUnit | qual | HC50 at 1 h |
| --- | --- | --- | --- |
| C=CCc1cccc(Oc2ccc(C(=O)CC)cc2)c1OCCC[N+](C)(C)CC(=O)N(CCCC)CCCC.[Br-] | µg/mL | = | 776 |
| C=CCc1cccc(Oc2ccc(C(=O)CC)cc2)c1OCC[N+](C)(C)CC(=O)N(CCC)CCC.[Br-] | µg/mL | = | 1110 |
| C=CCc1cccc(Oc2ccc(C(=O)CC)cc2)c1OCCC[N+](C)(C)CC(=O)N1CCCC1.[Br-] | µg/mL | = | 526 |
| C=CCc1cccc(Oc2ccc(C(=O)CC)cc2)c1OCC[N+](C)(C)CC(=O)N1CCOCC1.[Br-] | µg/mL | > | 1280 |

----------
MIC overview
Test system: Salmonella enterica
protocolDescription: Antibacterial activity against Salmonella enterica H9812 assessed as inhibition of bacterial growth incubated for 16 to 20 hrs by CLSI based microdilution method
Assay type: functional
conditionParameters: time 16-20 hrs

| structure | qual | MIC / µg/mL |
| --- | --- | --- |
| C=CCc1cccc(Oc2ccc(C(=O)CC)cc2)c1OCC[N+](C)(C)CC(=O)N(CCCC)CCCC.[Br-] | = | 128 |
| C=CCc1cccc(Oc2ccc(C(=O)CC)cc2)c1OCCCC[N+](C)(C)CC(=O)N1CCCC1.[Br-] | = | 128 |
| C=CCc1cccc(Oc2ccc(C(=O)CC)cc2)c1O | > | 128 |
| C=CCc1cccc(Oc2ccc(C(=O)CC)cc2)c1OCCC[N+](C)(C)CC(=O)NCCC.[Br-] | = | 32 |
| C=CCc1cccc(Oc2ccc(C(=O)CC)cc2)c1OCCCC[N+](C)(C)CC(=O)NCCC.[Br-] | = | 128 |
| C=CCc1cccc(Oc2ccc(C(=O)CC)cc2)c1OCCCC[N+](C)(C)CC(=O)N(CCCC)CCCC.[Br-] | = | 64 |
| Br.C=CCc1cccc(Oc2ccc(C(=O)CC)cc2)c1OCCCCSC(=N)N | = | 128 |
| C=CCc1cccc(Oc2ccc(C(=O)CC)cc2)c1OCC[N+](C)(C)CC(=O)NCCCCC.[Br-] | = | 64 |
| Br.C=CCc1cccc(Oc2ccc(C(=O)CC)cc2)c1OCCSC(=N)N | = | 128 |
| Br.C=CCc1cccc(Oc2ccc(C(=O)CC)cc2)c1OCCCSC(=N)N | = | 64 |
| C=CCc1cccc(Oc2ccc(C(=O)CC)cc2)c1OCC[N+](C)(C)CC(=O)NCCCC.[Br-] | = | 64 |
| C=CCc1cccc(Oc2ccc(C(=O)CC)cc2)c1OCC[N+](C)(C)CC(=O)N1CCCC1.[Br-] | = | 64 |
| C=CCc1cccc(Oc2ccc(C(=O)CC)cc2)c1OCCC[N+](C)(C)CC(=O)NCC.[Br-] | > | 128 |
| C=CCc1cccc(Oc2ccc(C(=O)CC)cc2)c1OCC[N+](C)(C)CC(=O)N(CC)CC.[Br-] | > | 128 |
| C=CCc1cccc(Oc2ccc(C(=O)CC)cc2)c1OCCC[N+](C)(C)CC(=O)NCCCCC.[Br-] | > | 128 |
| C=CCc1cccc(Oc2ccc(C(=O)CC)cc2)c1OCC[N+](C)(C)CC(=O)NCCC.[Br-] | = | 128 |
| C=CCc1cccc(Oc2ccc(C(=O)CC)cc2)c1OCCCC[N+](C)(C)CC(=O)N1CCOCC1.[Br-] | > | 128 |
| C=CCc1ccc(O)c(Oc2ccc(C(=O)CC)cc2)c1 | = | 128 |
| C=CCc1cccc(Oc2ccc(C(=O)CC)cc2)c1OCC[N+](C)(C)CC(=O)N(CCC)CCC.[Br-] | = | 64 |

Reference source for all entries: ChEMBL document CHEMBL5236634
